- target_system: T1, human LRP6 (human, UniProt O75581 20-1613)
- T1 construct: whole, on cells; Endogenous LRP6 on human cells (PA1, HEK293T/17); also called endogenous LRP6 on PA1 cells and HEK293T/17 cells
- T1 sequence (O75581 20-1613): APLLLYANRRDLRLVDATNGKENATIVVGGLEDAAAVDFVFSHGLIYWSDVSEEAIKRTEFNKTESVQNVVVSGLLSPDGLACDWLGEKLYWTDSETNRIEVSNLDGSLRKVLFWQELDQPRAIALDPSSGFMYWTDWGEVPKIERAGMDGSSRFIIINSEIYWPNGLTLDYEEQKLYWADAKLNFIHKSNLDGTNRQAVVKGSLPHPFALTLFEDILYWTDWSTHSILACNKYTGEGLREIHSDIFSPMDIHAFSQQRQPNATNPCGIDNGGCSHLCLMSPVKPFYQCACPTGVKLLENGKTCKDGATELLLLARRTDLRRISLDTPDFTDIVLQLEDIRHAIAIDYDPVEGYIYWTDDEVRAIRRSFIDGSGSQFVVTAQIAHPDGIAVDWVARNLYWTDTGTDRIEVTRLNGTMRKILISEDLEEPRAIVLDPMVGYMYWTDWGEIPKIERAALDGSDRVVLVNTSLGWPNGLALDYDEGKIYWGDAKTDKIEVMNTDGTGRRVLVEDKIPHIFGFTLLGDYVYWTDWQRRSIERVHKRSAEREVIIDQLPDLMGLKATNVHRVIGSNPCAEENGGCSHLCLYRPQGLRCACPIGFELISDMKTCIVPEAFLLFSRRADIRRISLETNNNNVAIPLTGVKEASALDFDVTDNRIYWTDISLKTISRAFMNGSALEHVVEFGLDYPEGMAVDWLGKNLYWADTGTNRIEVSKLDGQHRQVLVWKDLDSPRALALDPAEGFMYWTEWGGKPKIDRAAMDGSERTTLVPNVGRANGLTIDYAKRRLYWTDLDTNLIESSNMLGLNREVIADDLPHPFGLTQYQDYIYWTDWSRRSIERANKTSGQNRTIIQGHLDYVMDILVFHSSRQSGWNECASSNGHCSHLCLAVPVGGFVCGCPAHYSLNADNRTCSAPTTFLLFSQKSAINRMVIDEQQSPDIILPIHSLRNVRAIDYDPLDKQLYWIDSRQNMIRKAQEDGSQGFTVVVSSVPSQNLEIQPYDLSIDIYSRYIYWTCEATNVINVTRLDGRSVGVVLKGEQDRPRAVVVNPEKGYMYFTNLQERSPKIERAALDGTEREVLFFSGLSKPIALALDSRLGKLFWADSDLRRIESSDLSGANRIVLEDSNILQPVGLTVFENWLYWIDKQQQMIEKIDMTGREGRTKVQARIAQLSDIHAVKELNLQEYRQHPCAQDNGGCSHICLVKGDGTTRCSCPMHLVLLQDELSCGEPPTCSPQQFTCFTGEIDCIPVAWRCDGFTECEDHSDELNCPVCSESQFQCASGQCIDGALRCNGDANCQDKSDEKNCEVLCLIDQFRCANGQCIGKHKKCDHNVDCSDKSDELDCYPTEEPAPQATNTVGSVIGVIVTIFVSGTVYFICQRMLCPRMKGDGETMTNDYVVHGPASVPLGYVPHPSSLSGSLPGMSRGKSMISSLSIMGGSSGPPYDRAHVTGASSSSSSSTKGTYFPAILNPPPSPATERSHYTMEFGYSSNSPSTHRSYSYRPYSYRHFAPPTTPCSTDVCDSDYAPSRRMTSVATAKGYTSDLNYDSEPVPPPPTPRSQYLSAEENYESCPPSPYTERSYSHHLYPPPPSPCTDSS
- assay_text: FACS on HEK293T/17 cells, endogenous human LRP6
quantity: EC50 (nM)
Just the number in nM, nothing appended.

MOR08168 Fab (Fab, V domains shown, HuCAL Fab expressed in E. coli from pMORPH X9/X11 FH vectors and purified by Ni-NTA; also called Propeller 1 anti-LRP6 Fab MOR08168) VH: QVQLVESGGGLVQPGGSLRLSCAASGFTFSDYVINWVRQAPGKGLEWVSGISWSGVNTHYADSVKGRFTISRDNSKNTLYLQMNSLRAEDTAVYYCARLGATANNIRYKFMDVWGQGTLVTVSS VL: DIELTQPPSVSVAPGQTARISCSGDSLRNKVYWYQQKPGQAPVLVIYKNNRPSGIPERFSGSNSGNTATLTISGTQAEDEADYYCQSYDGQKSLVFGGGTKLTVL    0.28
MOR08473 Fab (Fab, V domains shown, also called Propeller 3 anti-LRP6 Fab MOR08473) VH: QVQLVESGGGLVQPGGSLRLSCAASGFTFSSYGMSWVRQAPGKGLEWVSNISNDGHYTYYADSVKGRFTISRDNSKNTLYLQMNSLRAEDTAVYYCARFQASYLDIMDYWGQGTLVTVSS VL: DIELTQPPSVSVAPGQSITISCSGDNIGSKYVHWYQQKPGQAPVLVIYNDSNRPSGIPERFSGSNSGNTATLTISGTQAEDEADYYCQAWGDNGTRVFGGGTKLTVLG    0.74
MOR08545 Fab (Fab, V domains shown, also called Propeller 1 anti-LRP6 Fab MOR08545) VH: QVQLVESGGGLVQPGGSLRLSCAASGFTFSVNGMHWVRQAPGKGLEWVSVIDGMGHTYYADSVKGRFTISRDNSKNTLYLQMNSLRAEDTAVYYCARYDYIKYGAFDPWGQGTLVTVSS VL: DIELTQPPSVSVAPGQTARISCSGDNIGSKYVHWYQQKPGQAPVLVIYGDSNRPSGIPERFSGSNSGNTATLTISGTQAEDEADYYCTRTSTPISGVFGGGTKLTVLG    0.09
MOR06706 Fab (Fab, V domains shown, also called Propeller 1 anti-LRP6 Fab MOR06706) VH: QVQLVESGGGLVQPGGSLRLSCAASGFTFSDYAIHWVRQAPGKGLEWVSGISYSGSSTHYADSVKGRFTISRDNSKNTLYLQMNSLRAEDTAVYYCARGSHGNIMAKRYFDFWGQGTLVTVSS VL: DIELTQPPSVSVAPGQTARISCSGDNIRKKYVYWYQQKPGQAPVLVIYEDSKRPSGIPERFSGSNSGNTATLTISGTQAEDEADYYCSTADSGINNGVFGGGTKLTVL    0.14

Continue with the binder presented below.
Give its EC50 value. Item: MOR08193 Fab (Fab, V domains shown, also called Propeller 3 anti-LRP6 Fab MOR08193) VH: QVQLKESGPALVKPTQTLTLTCTFSGFSLSNRGGGVGWIRQPPGKALEWLAWIDWDDDKSYSTSLKTRLTISKDTSKNQVVLTMTNMDPVDTATYYCARMHLPLVFDSWGQGTLVTVSS VL: DIVLTQSPATLSLSPGERATLSCRASQFIGSRYLAWYQQKPGQAPRLLIYGASNRATGVPARFSGSGSGTDFTLTISSLEPEDFAVYYCQQYWSIPITFGQGTKVEIKR
0.36
